The reader will find reported pKa2 values listed item by item below.
# method: Acid dissociation constants from absorbance vs pH
# Type: physicochemical
# measurement-conditions: NH dissociation to give the N anion
measurement-kind: pKa2

- molecule: "Cc1c(C)c(C)[c-](C)c1C.[OH2+][Ir]1[n+]2ccccc2-c2[nH]c3ccccc3[n+]21 [3[N,NH-H2O]2+]"
  value-measured: 8.44
- molecule: "C[S+](C)(=O)[Ir]1[O]c2ccccc2-c2[nH]c3ccccc3[n+]21.Cc1c(C)c(C)[c-](C)c1C [7[CO,NH-DMSO]+]"
  value-measured: 9.06
- molecule: "Cc1c(C)c(C)[c-](C)c1C.[OH2+][Ir]1[NH2+]c2ccccc2-c2[nH]c3ccccc3[n+]21 [5[CNH2,NH-H2O]2+]"
  value-measured: 11.30
- molecule: "C[S+](C)(=O)[Ir]1[c]2ccccc2-c2[nH]c3ccccc3[n+]21.Cc1c(C)c(C)[c-](C)c1C.[Cl-] [1[C,NH-DMSO]+, [(η^5-Cp*)Ir(DMSO)(κ^2-N,C-pbim)]Cl]"
  value-measured: 8.44

====

# System: A549 cells
# method: Viability of A549 proliferant vs quiescent cells
# Type: cell-based, human
# measurement-conditions: A549 proliferating condition, 24 h
pIC50: −log10 of the molar value.

- compound: "Cc1c(C)c(C)[c-](C)c1C.[Cl][Ir]1[c]2ccccc2-c2[nH]c3ccccc3[n+]21 [1[C,NH], [(η^5-Cp*)IrCl(κ^2-N,C-pbim)]]"
  pIC50: 5.02

====

# Test system: Calf thymus DNA
# method: DNA melting temperature (DSC)
# Type: binding
# measurement-conditions: as a function of CD/CP, overnight incubation
Measured ∆Tm of DNA accompanies every entry in the list below.
measurement-kind: ∆Tm of DNA (oC)

- compound: "Cc1c(C)c(C)[c-](C)c1C.Cn1c2[n+](c3ccccc31)[Ir]([Cl])[c]1ccccc1-2 [2[C,NMe], [(η^5-Cp*)IrCl(κ^2-N,C-NMepbim)]]"
  measurement-kind: "∆Tm of DNA"
  value-measured: 0
- compound: "Cc1c(C)c(C)[c-](C)c1C.[Cl][Ir]1[O]c2ccccc2-c2sc3ccccc3[n+]21 [8[CO,S], [(η^5-Cp*)IrCl(κ^2-O,N-hpbtz)]]"
  measurement-kind: "∆Tm of DNA"
  value-measured: 0
- compound: "Cc1c(C)c(C)[c-](C)c1C.Cn1c2[n+](c3ccccc31)[Ir]([Cl])[n+]1ccccc1-2.[Cl-] [4[N,NMe], [(η^5-Cp*)IrCl(κ^2-N,N-pyMebim)]Cl]"
  measurement-kind: "∆Tm of DNA"
  value-measured: -14

====

# System: A549 cells
# method: Viability of A549 proliferant vs quiescent cells
# Format: cell-based, human
# measurement-conditions: A549 non-proliferating (quiescent) condition, 24 h

- compound: "Cc1c(C)c(C)[c-](C)c1C.[Cl][Ir]1[c]2ccccc2-c2[nH]c3ccccc3[n+]21 [1[C,NH], [(η^5-Cp*)IrCl(κ^2-N,C-pbim)]]"
  IC50 (µM): 17

====

Property: pKa1; scope: individual compounds
# method: Acid dissociation constants from absorbance vs pH
# Assay type: physicochemical
# measurement-conditions: water dissociation to give the hydroxo complex
# Procedure: The pH measurements were carried out with a Metrohm 16 DMS Titrino pH meter fitted out with a combined glass electrode with a 3 M KCl solution as a liquid junction. HClO4 and NaOH solution were used to adjust the pH. The UV-vis measurements were performed with a Hewlett-Packard 8453A (Agilent Technologies, Palo Alto, CA, USA) photodiode array spectrophotometer with a Peltier temperature control system. […]

- compound: "Cc1c(C)c(C)[c-](C)c1C.[OH2+][Ir]1[NH2+]c2ccccc2-c2sc3ccccc3[n+]21 [6[CNH2,S-H2O]2+]"
  pKa1: 8.70
- compound: "Cc1c(C)c(C)[c-](C)c1C.[OH2+][Ir]1[n+]2ccccc2-c2[nH]c3ccccc3[n+]21 [3[N,NH-H2O]2+]"
  pKa1: 6.08
- compound: "Cc1c(C)c(C)[c-](C)c1C.Cn1c2[n+](c3ccccc31)[Ir]([OH2+])[n+]1ccccc1-2 [4[N,NMe-H2O]2+]"
  pKa1: 7.48
- compound: "Cc1c(C)c(C)[c-](C)c1C.[OH2+][Ir]1[NH2+]c2ccccc2-c2[nH]c3ccccc3[n+]21 [5[CNH2,NH-H2O]2+]"
  pKa1: 7.48

====

# Tested on: A2780cis (ovarian, acquired resistance to cisplatin)
# method: MTT cytotoxicity assay
# Format: cell-based, human
# measurement-conditions: 48 h
measurement-kind: Resistance Factor (RF) IC50,A2780CIS/IC50,A2780

- compound: "Cc1c(C)c(C)[c-](C)c1C.[Cl][Ir]1[O]c2ccccc2-c2sc3ccccc3[n+]21 [8[CO,S], [(η^5-Cp*)IrCl(κ^2-O,N-hpbtz)]]"
  assay-system: "A2780cis (ovarian, acquired resistance to cisplatin)"
  value-measured: "> 2"
- compound: "Cc1c(C)c(C)[c-](C)c1C.Cn1c2[n+](c3ccccc31)[Ir]([Cl])[c]1ccccc1-2 [2[C,NMe], [(η^5-Cp*)IrCl(κ^2-N,C-NMepbim)]]"
  assay-system: "A2780cis (ovarian, acquired resistance to cisplatin)"
  value-measured: "no cross-resistance"
- compound: "Cc1c(C)c(C)[c-](C)c1C.[Cl][Ir]1[c]2ccccc2-c2[nH]c3ccccc3[n+]21 [1[C,NH], [(η^5-Cp*)IrCl(κ^2-N,C-pbim)]]"
  assay-system: "A2780cis (ovarian, acquired resistance to cisplatin)"
  value-measured: "no cross-resistance"
- compound: "Cc1c(C)c(C)[c-](C)c1C.[Cl][Ir]1[O]c2ccccc2-c2[nH]c3ccccc3[n+]21 [7[CO,NH], [(η^5-Cp*)IrCl(κ^2-O,N-hpbim)]]"
  assay-system: "A2780cis (ovarian, acquired resistance to cisplatin)"
  value-measured: "> 2"

====

# assay-system: BSA (Bos taurus, UniProt P02769)
# Construct: purchased Merck Life Science S.L.U., Madrid, Spain
# Sequence (P02769 25-607): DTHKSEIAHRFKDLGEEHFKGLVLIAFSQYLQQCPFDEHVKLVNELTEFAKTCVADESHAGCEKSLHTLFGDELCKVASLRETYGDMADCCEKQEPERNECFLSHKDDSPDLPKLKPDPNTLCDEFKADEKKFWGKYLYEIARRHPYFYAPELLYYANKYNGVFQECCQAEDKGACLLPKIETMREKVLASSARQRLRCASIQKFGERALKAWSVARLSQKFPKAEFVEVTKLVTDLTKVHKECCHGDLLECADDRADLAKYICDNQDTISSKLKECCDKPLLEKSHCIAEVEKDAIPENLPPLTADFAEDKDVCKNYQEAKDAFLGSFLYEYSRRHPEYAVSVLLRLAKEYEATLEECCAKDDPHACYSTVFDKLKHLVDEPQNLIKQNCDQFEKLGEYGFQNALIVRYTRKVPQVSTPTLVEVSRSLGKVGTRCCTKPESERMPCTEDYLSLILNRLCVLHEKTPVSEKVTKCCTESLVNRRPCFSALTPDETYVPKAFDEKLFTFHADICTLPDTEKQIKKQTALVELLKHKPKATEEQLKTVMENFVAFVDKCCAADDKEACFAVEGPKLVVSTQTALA
# method: Native PAGE of BSA with iridium complexes
# Format: binding, bovine
# measurement-conditions: BSA 3 µM, CD/CP = 10, overnight
measurement-kind: Interaction with BSA

- compound: "Cc1c(C)c(C)[c-](C)c1C.Cn1c2[n+](c3ccccc31)[Ir]([Cl])[n+]1ccccc1-2.[Cl-] [4[N,NMe], [(η^5-Cp*)IrCl(κ^2-N,N-pyMebim)]Cl]"
  measurement-kind: "Interaction with BSA"
  value-measured: "interactions"
- compound: "Cc1c(C)c(C)[c-](C)c1C.[Cl][Ir]1[O]c2ccccc2-c2[nH]c3ccccc3[n+]21 [7[CO,NH], [(η^5-Cp*)IrCl(κ^2-O,N-hpbim)]]"
  measurement-kind: "Interaction with BSA"
  value-measured: "interactions"

====

# method: Acid dissociation constants from absorbance vs pH
# Assay type: physicochemical
# measurement-conditions: free ligand, deprotonation of the pyridine type N atom; read-out: pKa1

- molecule: "c1ccc(-c2nc3ccccc3[nH]2)cc1 [2-phenylbenzimidazole]"
  pKa: 5.2

====

# System: Calf thymus DNA
# method: DNA melting temperature (DSC)
# Assay type: binding
# measurement-conditions: as a function of CD/CP, overnight incubation
# Experimental: Differential scanning calorimetry (DSC) studies were performed in a nano DSC (TA Instruments, Newcastle, USA) to determine the melting temperature of DNA in the absence and in the presence of different amount of the Ir(III) complexes. Cells were 300 μL platinum capillary tubes. Measurements were performed by heating the dye/polynucleotide system from 20 to 90 °C, at 1 °C/min scan rate and 3 atm pressure. […] The thermograms recorded were analysed with the NanoAnalyze 2.0 software. […]

- compound: "Cc1c(C)c(C)[c-](C)c1C.[Cl-].[Cl][Ir]1[n+]2ccccc2-c2[nH]c3ccccc3[n+]21 [3[N,NH], [(η^5-Cp*)IrCl(κ^2-N,N-pybim)]Cl]"
  assay-system: "Calf thymus DNA"
  ∆Tm of DNA: "-35 oC"
- compound: "Cc1c(C)c(C)[c-](C)c1C.[Cl][Ir]1[O]c2ccccc2-c2[nH]c3ccccc3[n+]21 [7[CO,NH], [(η^5-Cp*)IrCl(κ^2-O,N-hpbim)]]"
  assay-system: "Calf thymus DNA"
  ∆Tm of DNA: "0 oC"
- compound: "Cc1c(C)c(C)[c-](C)c1C.[Cl][Ir]1[c]2ccccc2-c2[nH]c3ccccc3[n+]21 [1[C,NH], [(η^5-Cp*)IrCl(κ^2-N,C-pbim)]]"
  assay-system: "Calf thymus DNA"
  ∆Tm of DNA: "0 oC"

====

# Test system: Calf thymus DNA
# method: Kinetics of covalent binding to DNA (UV-vis, NMR)
# measurement-conditions: values are kc x 103; CP/CD = 20
# Source text: Materials. The iridium chloride salt (IrCl3·nH2O) was purchased from Johnson Mattey. […] The molar DNA concentration in base pairs, ε (260 nm) = 13,200 M^−1 cm^−1 [49], will be expressed as CP. BSA was supplied as crystallized and lyophilized powder (≥98%, agarose gel electrophoresis and ≤0.005% fatty acids); the BSA concentration of the stock solutions was spectrophotometrically determined as ε (278 nm) = 45,000 M^−1 cm^−1. […]
measurement-kind: kc x 103 (rate constant of covalent binding to DNA) (s-1)

- compound: "Cc1c(C)c(C)[c-](C)c1C.[Cl][Ir]1[O]c2ccccc2-c2sc3ccccc3[n+]21 [8[CO,S], [(η^5-Cp*)IrCl(κ^2-O,N-hpbtz)]]"
  value-measured: 6.0
- compound: "Cc1c(C)c(C)[c-](C)c1C.[Cl-].[Cl][Ir]1[NH2+]c2ccccc2-c2sc3ccccc3[n+]21 [6[CNH2,S], [(η^5-Cp*)IrCl(κ^2-N,N-apbtz)]Cl]"
  value-measured: 6.4
- compound: "Cc1c(C)c(C)[c-](C)c1C.[Cl-].[Cl][Ir]1[NH2+]c2ccccc2-c2[nH]c3ccccc3[n+]21 [5[CNH2,NH], [(η^5-Cp*)IrCl(κ^2-N,N-apbim)]Cl]"
  value-measured: 3.9
